Measured TGI by item
- Tested on: XF 498 CNS
- experiment-description: NCI tumour cell line growth inhibition, 48 h

molecule	uom	limit-qualifier	TGI
COc1cc2cc[n+]3c(C)c4cc(OC)c(OC)cc4c([O-])c3c2cc1OC	µM	=	82.1
Cc1ccc(N2C(=O)C3C=CC(n4[nH]c(=O)n(Cc5ccccc5)c4=O)CC3C2=O)cc1 (configuration not stated)	µM	>	100
Cc1[nH]c2ccccc2c1C1Cc2ccccc2N1C(=O)/C=C/C(=O)O (configuration not stated)	µM	>	100
CC1=C2C(=CC(C)(C)C2O)C(=O)C(C)(O)C12CC2 (configuration not stated)	µM	=	0.0309
COc1ccc(/C=C\c2cc(OC)c(OC)c(OC)c2)cc1OC	µM	=	0.401
COC(=O)C1=CC2C(=O)OC1CC2C#N (configuration not stated)	µM	>	100
CC(=O)C1C(=O)C(=O)N(c2ccccc2C(C)C)C1=O (configuration not stated)	µM	>	100
